tgt: human LPA1 (Homo sapiens)
assay_name: LPA1 functional antagonist assay (calcium flux)
condition: CHO cells overexpressing human LPA1; inhibition of calcium flux induced by 10 nM LPA; read-out: hLPA1 IC50
pIC50: −log10 of the molar value.
readout_name: pIC50

Worked set:
compound	experimental_result
CCCCN(C)C(=O)OCc1c(-c2ccc(O[C@@H]3CC[C@H]4C(C(=O)O)[C@@H]34)c(C)n2)nnn1C (stereo partly shown)	7.34
Cc1nc(-c2nnn(C)c2COC(=O)N(C)CC2CCCC2)ccc1O[C@@H]1COC[C@@H](C(=O)O)C1 [Example 22A]	6.80

A: Cc1nc(-c2nnn(C)c2COC(=O)N(C)C2CCCC2)ccc1O[C@@H]1CC[C@H]2C(C(=O)O)[C@@H]12 (stereo partly shown)
B: Cc1nc(-c2nnn(C)c2CNc2noc(CC3CC3)n2)ccc1O[C@H]1C[C@H](C(=O)O)[C@@H]2C[C@@H]21
[in] Param pair: A , B . Output: the one whose pIC50 is numerically greater. Answer = label.
[out] A

* * *

tgt: human LPA1 (Homo sapiens, UniProt Q92633)
Construct: expressed in transfected cells; host or cells: Chinese hamster ovary (CHO) cells
Sequence (Q92633 whole entry): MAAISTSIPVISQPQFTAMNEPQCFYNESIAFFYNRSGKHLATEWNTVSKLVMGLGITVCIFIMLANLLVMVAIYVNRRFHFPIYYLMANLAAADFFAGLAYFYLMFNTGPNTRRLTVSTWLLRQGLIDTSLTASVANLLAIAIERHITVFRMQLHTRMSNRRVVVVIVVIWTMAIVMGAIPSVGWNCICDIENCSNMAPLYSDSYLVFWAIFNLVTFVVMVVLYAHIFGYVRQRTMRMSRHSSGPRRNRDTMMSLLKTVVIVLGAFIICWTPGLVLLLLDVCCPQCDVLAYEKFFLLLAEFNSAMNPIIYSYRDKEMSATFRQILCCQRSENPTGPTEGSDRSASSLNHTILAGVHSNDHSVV
assay_name: LPA1 functional antagonist assay (calcium flux)
Format: cell-based
condition: CHO cells overexpressing human LPA1; inhibition of calcium flux induced by 10 nM LPA; read-out: hLPA1 IC50
pIC50: −log10 of the molar value.
readout_name: pIC50

Worked set:
molecule	readout_name	experimental_result
CCCN(C)C(=O)OCc1c(-c2ccc(O[C@@H]3CC[C@H]4C(C(=O)O)[C@@H]34)cn2)nnn1C (mixture of isomers) [Example 69]	pIC50	6.34
Cc1nc(-c2nnn(C)c2COC(=O)N(C)Cc2ccccc2)ccc1O[C@@H]1COC[C@@H](C(=O)O)C1 [Example 22B]	pIC50	6.75
Cc1nc(-c2nnn(C)c2COC(=O)N(C)CC2CCC2)ccc1O[C@@H]1CC[C@H]2[C@@H](C(=O)O)[C@H]21 (racemic) [Example 49]	pIC50	6.79

P: CN(CC1CCC1)C(=O)OCc1c(-c2ccc(O[C@@H]3CC[C@H]4C(C(=O)O)[C@@H]34)cn2)nnn1C (some centres unmarked) [Example 70]
Q: Cc1nc(-c2nnn(C)c2COC(=O)N(C)CC2CCC2)ccc1O[C@@H]1CC[C@H]2C(C(=O)O)[C@@H]12 (single isomer, unassigned) [Example 42]
R: Cc1nc(-c2nnn(C)c2COC(=O)N(C)CC2CCC2)ccc1O[C@@H]1COC[C@@H](C(=O)O)C1 [Example 21]
S: Cc1nc(-c2nnn(C)c2COC(=O)N(C)CC2CCC2)ccc1O[C@H]1COC[C@@H](C(=O)O)C1 [Example 32]
[in] Sort entries by pIC50 from minimum to maximum value. Hello, could you send the labels back in the order asked? Thank you.
[out] Q, S, R, P

1: CCCCN(C)C(=O)OCc1c(-c2ccc(O[C@H]3COC[C@@H](C(=O)O)C3)c(C)n2)nnn1C [Example 30]
2: CN(C(=O)OCc1c(-c2ccc(OC3CCCC4C(C(=O)O)C34)cn2)nnn1C)C1CCCC1 (racemic) [Example 74]
[in] Param pair: 1 , 2 . Output: the one whose pIC50 is numerically greater. Answer = label.
[out] 2
(2: 7.22, 1: 6.63)

* * *

tgt: human LPA1 (Homo sapiens, UniProt Q92633)
assay_name: LPA1 functional antagonist assay (calcium flux)
condition: CHO cells overexpressing human LPA1; inhibition of calcium flux induced by 10 nM LPA; read-out: hLPA1 IC50
pIC50: −log10 of the molar value. Counter-ions that a name gives are not always drawn.
readout_name: pIC50

molecule	experimental_result
Cc1nc(-c2nnn(C)c2Cn2nncc2CC2CCCC2)ccc1O[C@H]1COC[C@H](C(=O)O)C1	6.03
Cc1nc(-c2nnn(C)c2COC(=O)N(C)CC2CCCC2)ccc1OC1COCC(C(=O)O)C1 (racemic) [Example 28, TFA Salt]	6.65
Cc1nc(-c2nnn(C)c2COC(=O)N(C)CC2CCC2)ccc1O[C@H]1CC2C[C@H]2[C@@H](C(=O)O)C1 (mixture of isomers) [Example 7]	7.40
CCCCOC(=O)NCc1c(-c2ccc(O[C@@H]3CCC4C(C(=O)O)C43)c(C)n2)nnn1C (some centres unmarked)	6.81
Cc1nc(-c2nnn(C)c2COC(=O)N(C)Cc2ccccc2)ccc1O[C@H]1COC[C@@H](C(=O)O)C1	6.23

P: Cc1nc(-c2nnn(C)c2CNC(=O)OC2CCCC2)ccc1O[C@@H]1CCC2C(C(=O)O)C21 (some centres unmarked)
Q: Cc1nc(-c2nnn(C)c2COC(=O)N(C)CC2CC2)ccc1O[C@@H]1CC[C@H]2C(C(=O)O)[C@@H]12 (some centres unmarked)
[in] Param pair: P , Q . Output: the one whose pIC50 is numerically greater. Answer = label.
[out] P
(P: 7.08, Q: 6.50)

a: Cc1nc(-c2nnn(C)c2COC(=O)N(C)CC2CCC2)ccc1O[C@H]1C[C@H]2C[C@H]2[C@H](C(=O)O)C1 (racemic)
b: Cc1nc(-c2nnn(C)c2COC(=O)N(C)CC2CCC2)ccc1O[C@H]1CC[C@@H]2[C@@H](C(=O)O)[C@@H]21 (single isomer, unassigned) [Example 46]
[in] Problem: Given the entries a and b , determine which has the lower reported pIC50. Answer = label.
[out] b

* * *

tgt: human LPA1 (Homo sapiens, UniProt Q92633)
assay_name: LPA1 functional antagonist assay (calcium flux)
condition: CHO cells overexpressing human LPA1; inhibition of calcium flux induced by 10 nM LPA; read-out: hLPA1 IC50
pIC50: −log10 of the molar value. Counter-ions that a name gives are not always drawn.
readout_name: pIC50

compound	pIC50
CCCCN(C)C(=O)OCc1c(-c2ccc(O[C@@H]3COC[C@@H](C(=O)O)C3)c(C)n2)nnn1C	6.76
CC(C)CN(C)C(=O)OCc1c(-c2ccc(O[C@@H]3CC[C@H]4C(C(=O)O)[C@@H]34)cn2)nnn1C (mixture of isomers)	6.62
CCCN(C)C(=O)OCc1c(-c2ccc(O[C@@H]3COC[C@@H](C(=O)O)C3)c(C)n2)nnn1C (racemic) [Example 17, TFA Salt]	6.03

a: Cc1nc(-c2nnn(C)c2Cn2cc(CC3CCCC3)nn2)ccc1O[C@H]1COC[C@H](C(=O)O)C1
b: Cc1nc(-c2nnn(C)c2COC(=O)NCc2ccccc2)ccc1O[C@@H]1CC[C@H]2C(C(=O)O)[C@@H]12 (some centres unmarked)
c: CCCCCN(C)C(=O)OCc1c(-c2ccc(O[C@@H]3COC[C@@H](C(=O)O)C3)c(C)n2)nnn1C
d: Cc1nc(-c2nnn(C)c2COC(=O)N(C)CC2CCC2)ccc1O[C@@H]1CC2C[C@H]2[C@H](C(=O)O)C1 (single isomer, unassigned)
e: Cc1nc(-c2nnn(C)c2COC(=O)N(C)CC2CCC2)ccc1O[C@@H]1CC[C@H]2C(C(=O)O)[C@@H]12 (single isomer, unassigned) [Example 45]
[in] Descending sort on pIC50 required. Hello, could you send the labels back in the order asked? Thank you.
[out] d, e, c, b, a

* * *

tgt: human LPA1 (Homo sapiens)
assay_name: LPA1 functional antagonist assay (calcium flux)
condition: CHO cells overexpressing human LPA1; inhibition of calcium flux induced by 10 nM LPA; read-out: hLPA1 IC50
pIC50: −log10 of the molar value.
readout_name: pIC50

molecule	pIC50
Cc1nc(-c2nnn(C)c2Cn2ncc(CC3CCCC3)n2)ccc1O[C@H]1COC[C@H](C(=O)O)C1 [Example 27]	6.96
Cc1nc(-c2nnn(C)c2COC(=O)N(C)CCC(C)C)ccc1O[C@@H]1COC[C@@H](C(=O)O)C1 [Example 20]	6.65

a: CCCCN(C)C(=O)OCc1c(-c2ccc(O[C@H]3CCO[C@H](C(=O)O)C3)c(C)n2)nnn1C [Example 37]
b: Cc1nc(-c2nnn(C)c2COC(=O)N(C)CC2CCC2)ccc1O[C@@H]1CCC[C@@]2(C(=O)O)C[C@@H]12 (single isomer, unassigned) [Example 11]
c: CN(C(=O)OCc1c(-c2ccc(OC3CC4C(C3)C4C(=O)O)cn2)nnn1C)C1CCCC1 (centres unmarked) [Example 65]
[in] Sort entries by pIC50 from minimum to maximum value. Hello, could you send the labels back in the order asked? Thank you.
[out] c, a, b

* * *

tgt: human LPA1 (Homo sapiens, UniProt Q92633)
assay_name: LPA1 functional antagonist assay (calcium flux)
condition: CHO cells overexpressing human LPA1; inhibition of calcium flux induced by 10 nM LPA; read-out: hLPA1 IC50
readout_name: IC50 (nM)

molecule	experimental_result
Cc1nc(-c2nnn(C)c2COC(=O)N(C)CC2CCC2)ccc1O[C@@H]1C[C@H]2C[C@H]2[C@H](C(=O)O)C1 (racemic)	27
Cc1nc(-c2nnn(C)c2COC(=O)N(C)CC2CCC2)ccc1O[C@@H]1CCC[C@@]2(C(=O)O)C[C@@H]12 (racemic) [Example 10]	188
Cc1nc(-c2nnn(C)c2COC(=O)N(C)CC2CCC2)ccc1O[C@@H]1C[C@@H]2C[C@@H]2[C@H](C(=O)O)C1 (single isomer, unassigned)	26
CCCN(C)C(=O)OCc1c(-c2ccc(O[C@H]3CCO[C@H](C(=O)O)C3)c(C)n2)nnn1C	2010
Cc1nc(-c2nnn(C)c2NC(=O)OCc2ccccc2)ccc1O[C@@H]1CC[C@H]2C(C(=O)O)[C@@H]12 (stereo partly drawn)	125
CN(C(=O)OCc1c(-c2ccc(O[C@@H]3C[C@H](C(=O)O)C[C@@H]4C[C@@H]43)cn2)nnn1C)C1CCCC1 (racemic)	80
Cc1nc(-c2nnn(C)c2CNc2noc(CCC3CCC3)n2)ccc1O[C@@H]1CCO[C@@H](C(=O)O)C1 (racemic)	263

A: Cc1nc(-c2nnn(C)c2COC(=O)N(C)CC2CCC2)ccc1O[C@H]1C[C@@H]2C[C@@H]2[C@@H](C(=O)O)C1 (single isomer, unassigned)
B: Cc1nc(-c2nnn(C)c2COC(=O)N(C)CC2CCC2)ccc1O[C@H]1CC2C[C@H]2[C@@H](C(=O)O)C1 (single isomer, unassigned) [Example 9]
[in] Problem: Given the entries A and B , determine which has the lower reported IC50. Answer = label.
[out] B
(B: 582 nM, A: 907 nM)
